# test system: Insulin-like growth factor 2 receptor (IGF-1IR, cation-independent mannose-6-phosphate receptor, CI-MPR; hIGF-IIR) (Homo sapiens)
# assay protocol: HTRF-based ternary complex inhibition assay for relative affinity of IGF-IIR ligands
# conditions: competition with MTAC probe for His-tagged hIGF-IIR; biotinylated IgG1; apparent binding affinity; read-out: TCF INH (HTRF) IC50
Structures can show the parent of a compound that is named as a salt.
Measured IC50 values are reported for all entries that follow.

INSERT INTO results (compound, measured_result) VALUES
  ('COc1ccc(OC2O[C@H](CCP(=O)(O)CC3CC3)[C@@H](O)[C@H](O)[C@@H]2O)cc1 (some centres unmarked) [Compound A56]', '< 10 µM'),
  ('O=P(O)(O)CC[C@H]1O[C@H](/C=C/c2ccccc2)[C@@H](O)[C@@H](O)[C@@H]1O [Compound A21]', '10 to 100 µM'),
  ('COc1ccc(O[C@H]2O[C@H](CCP(=O)(O)Cc3c(F)cc(F)cc3F)[C@@H](O)[C@H](O)[C@@H]2O)cc1 [Compound A55]', '10 to 100 µM'),
  ('O=P(O)(CC[C@H]1O[C@H](OC2CCCCC2)[C@@H](O)[C@@H](O)[C@@H]1O)Cc1ccccc1O [Compound A47]', '10 to 100 µM'),
  ('NC[C@H]1O[C@H](O)[C@@H](O)[C@@H](O)[C@@H]1O [Compound A41, hydrochloride]', '10 to 100 µM'),
  ('C#C[C@H]1O[C@H](CCP(=O)(O)O)[C@@H](O)[C@H](O)[C@@H]1O [Compound A20]', '< 10 µM'),
  ('COc1ccc(OC2O[C@H](CCP(=O)(O)Cc3ccccc3C#N)[C@@H](O)[C@H](O)[C@@H]2O)cc1 (some centres unmarked) [Compound A49]', '< 10 µM'),
  ('O=P(O)(O)CC[C@H]1O[C@H](c2cn(C3CCNCC3)nn2)[C@@H](O)[C@@H](O)[C@@H]1O [Compound A86]', '< 10 µM'),
  ('COc1ccc(OC2O[C@H](CCP(=O)(O)CC3CCCC3)[C@@H](O)[C@H](O)[C@@H]2O)cc1 (some centres unmarked) [Compound A82]', '< 10 µM'),
  ('COc1ccc(O[C@H]2O[C@H](CCP(=O)(O)Cc3c(F)cccc3Cl)[C@@H](O)[C@H](O)[C@@H]2O)cc1 [Compound A51]', '< 10 µM');

IC50 for Nc1ccc2c(c1)Cc1cc(O[C@H]3O[C@H](CCP(=O)(O)O)[C@@H](O)[C@H](O)[C@@H]3O)ccc1-2 [Compound A76] is < 10 µM

IC50 for O=P(O)(CC[C@H]1O[C@H](Oc2ccc3c(c2)Cc2ccccc2-3)[C@@H](O)[C@@H](O)[C@@H]1O)Cc1c(F)cccc1F [Compound A79] is < 10 µM

IC50 for N#CNC(=O)CC[C@H]1O[C@H](Oc2ccccc2)[C@@H](O)[C@@H](O)[C@@H]1O [Compound A3] is 10 to 100 µM

IC50 for CS(=N)(=O)CC[C@H]1O[C@H](O)[C@@H](O)[C@@H](O)[C@@H]1O (some centres unmarked) [Compound A1] is < 10 µM

IC50 for O=P(O)(CC[C@H]1OC(O)[C@@H](O)[C@@H](O)[C@@H]1O)Cc1c(F)cccc1F (some centres unmarked) [Compound A60] is 10 to 100 µM

IC50 for O=C(NS(=O)(=O)CC[C@H]1O[C@H](O)[C@@H](O)[C@@H](O)[C@@H]1O)c1ccno1 [Compound A11] is 10 to 100 µM

IC50 for O=P(O)(CC[C@H]1O[C@H](Oc2ccccc2)[C@@H](O)[C@@H](O)[C@@H]1O)Cc1c(F)cccc1F [Compound A42] is < 10 µM
